Molecular target: TGR5 (Homo sapiens)
Sequence (Q8TDU6 whole entry): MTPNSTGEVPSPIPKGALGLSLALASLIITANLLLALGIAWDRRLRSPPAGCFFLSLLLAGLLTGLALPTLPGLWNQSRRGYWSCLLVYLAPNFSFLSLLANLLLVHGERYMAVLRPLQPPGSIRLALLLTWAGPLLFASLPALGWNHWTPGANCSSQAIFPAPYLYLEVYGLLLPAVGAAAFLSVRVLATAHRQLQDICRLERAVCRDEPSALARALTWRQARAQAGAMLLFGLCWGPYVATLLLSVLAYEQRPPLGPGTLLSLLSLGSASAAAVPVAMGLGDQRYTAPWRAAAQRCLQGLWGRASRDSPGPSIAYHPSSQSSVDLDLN
Assay: TGR5 activity: cAMP in hTGR5 CHO-k1 cells
Type: cell-based
Design: expressed in transfected cells; host or cells: CHO-k1
Conditions: hTGR5 CHO cells, cAMP
pEC50: −log10 of the molar value.
Param threshold (6) applies to pEC50; output T when value >= threshold, F when value < threshold.

Is it the case that CC[C@H]1[C@@H](O)[C@@H]2[C@H](CC[C@]3(C)[C@@H]([C@H](C)CCc4nc(=O)o[nH]4)[C@@H](O)C[C@@H]23)[C@@]2(C)CC[C@@H](O)C[C@@H]12 has pEC50 reaching or exceeding 6?
T

Is it the case that CC[C@H]1[C@@H](O)[C@@H]2[C@H](C[C@H](O)[C@]3(C)[C@@H]([C@H](C)C[C@H](F)C(=O)O)CC[C@@H]23)[C@@]2(C)CC[C@@H](O)C[C@@H]12 has pEC50 reaching or exceeding 6?
T

Is it the case that CC[C@@H]1C2C[C@H](O)CC[C@]2(C)C2CC[C@@]3(C)C(CC[C@@H]3[C@H](C)Cc3nc(=O)o[nH]3)C2[C@@H]1O (stereo partly shown) has pEC50 reaching or exceeding 6?
T

Is it the case that CC[C@H]1[C@@H](O)[C@@H]2[C@H](C[C@H](O)[C@]3(C)[C@@H]([C@H](C)C[C@@H](O)C(=O)O)CC[C@@H]23)[C@@]2(C)CC[C@@H](O)C[C@@H]12 has pEC50 reaching or exceeding 6?
F

Is it the case that CC[C@H]1[C@@H](O)[C@@H]2[C@H](C[C@H](O)[C@]3(C)[C@@H]([C@H](C)C[C@H](O)C(=O)O)CC[C@@H]23)[C@@]2(C)CC[C@@H](O)C[C@@H]12 has pEC50 reaching or exceeding 6?
F

Is it the case that CC[C@H]1[C@@H](O)[C@@H]2[C@H](C[C@H](O)[C@]3(C)[C@@H]([C@H](C)C[C@H](CF)C(=O)O)CC[C@@H]23)[C@@]2(C)CC[C@@H](O)C[C@@H]12 has pEC50 reaching or exceeding 6?
F

Is it the case that CC[C@H]1[C@@H](O)C2C3CC[C@H]([C@H](C)C[C@H](CO)C(=O)O)[C@@]3(C)[C@@H](O)CC2[C@@]2(C)CC[C@@H](O)C[C@@H]12 (stereo partly shown) has pEC50 reaching or exceeding 6?
F

====

Target: mouse glutathione transferase-tagged FXR-LBD (Mus musculus, UniProt Q60641)
Construct: mouse glutathione transferase-tagged FXR-LBD (generated in-house); made in house
Sequence (Q60641 264-488 limits assumed): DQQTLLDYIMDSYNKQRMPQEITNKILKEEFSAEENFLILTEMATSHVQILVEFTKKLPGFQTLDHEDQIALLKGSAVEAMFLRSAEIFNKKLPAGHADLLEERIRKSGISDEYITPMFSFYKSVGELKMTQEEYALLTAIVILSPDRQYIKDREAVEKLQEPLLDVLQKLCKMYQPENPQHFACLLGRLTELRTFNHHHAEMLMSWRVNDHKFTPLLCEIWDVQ
Experiment: FXR AlphaScreen coactivator recruitment assay (mouse)
Type: biochemical
Details: mouse FXR-LBD, value in parentheses; read-out: (mFXR) Efficacy
quantity kind: Emax (%)
Give your result in % as a bare value.

molecule	tgt	quantity unit	number
CC[C@H]1[C@@H](O)[C@@H]2[C@H](C[C@H](O)[C@]3(C)[C@@H]([C@H](C)C[C@H](O)C(=O)O)CC[C@@H]23)[C@@]2(C)CC[C@@H](O)C[C@@H]12	mouse glutathione transferase-tagged FXR-LBD (Mus musculus, UniProt Q60641)	%	9

Which Emax value belongs to CC[C@H]1[C@@H](O)C2C3CC[C@H]([C@H](C)CC(=O)NCCOS(=O)(=O)[O-])[C@@]3(C)CCC2[C@@]2(C)CC[C@@H](O)C[C@@H]12.[Na+] (stereo partly drawn) ?
136

Which Emax value belongs to CC[C@H]1[C@@H](O)C2C3CC[C@H]([C@H](C)CCc4noc(=O)[nH]4)[C@@]3(C)[C@@H](O)CC2[C@@]2(C)CC[C@@H](O)C[C@@H]12 (stereo partly drawn) ?
100

Which Emax value belongs to CC[C@H]1[C@@H](O)[C@@H]2[C@H](C[C@H](O)[C@]3(C)[C@@H]([C@H](C)C[C@H](F)C(=O)O)CC[C@@H]23)[C@@]2(C)CC[C@@H](O)C[C@@H]12 ?
47

Which Emax value belongs to CC[C@@H]1C2C[C@H](O)CC[C@]2(C)C2CC[C@@]3(C)C(CC[C@@H]3[C@H](C)Cc3nc(=O)o[nH]3)C2[C@@H]1O (stereo partly drawn) ?
264

Which Emax value belongs to CC[C@H]1[C@@H](O)[C@@H]2[C@H](C[C@H](O)[C@]3(C)[C@@H]([C@H](C)C[C@@H](O)C(=O)O)CC[C@@H]23)[C@@]2(C)CC[C@@H](O)C[C@@H]12 ?
61

Which Emax value belongs to CC[C@H]1[C@@H](O)[C@@H]2[C@H](C[C@H](O)[C@]3(C)[C@@H]([C@H](C)C[C@@H](F)C(=O)O)CC[C@@H]23)[C@@]2(C)CC[C@@H](O)C[C@@H]12 ?
127

Which Emax value belongs to CC[C@H]1[C@@H](O)C2C3CC[C@H]([C@H](C)CCc4nn[nH]n4)[C@@]3(C)CCC2[C@@]2(C)CC[C@@H](O)C[C@@H]12 (stereo partly drawn) ?
222
